Cited source: paper PMC4775281

# MEASUREMENT_TARGET: catalytic subunit of the cAMP-dependent protein kinase A (PKA-C) (Mus musculus)
# EXPERIMENT_SUMMARY: isothermal titration calorimetry
pKd: −log10 of the molar value.

>  <RECORD_SMILES>
Nc1ncnc2c1ncn2[C@@H]1O[C@H](COP(=O)(O)O)[C@@H](O)[C@H]1O

>  <pKd>
~3.60

$$$$
